# Test system: BEAS-2B
# EXPERIMENTAL_PROTOCOL: Mammalian cytotoxicity assay
# Type: cell-based, human
# RUN_CONDITIONS: range 0–62.6 μg/mL, 24 h
MEASUREMENT_LABEL: concentration up to which no toxicity was observed (BEAS-2B)

MOLECULE	OBSERVED_VALUE
COc1ccc(Cc2cn(C)c3ccc([N+](=O)[O-])cc23)cc1C(=O)NS(=O)(=O)c1ccccc1Cl [Compound 21b]	up to 31.3 μg/mL
COc1cc(C(=O)NS(=O)(=O)c2ccccc2C)ccc1Cc1cn(C)c2ccc(NC(=O)OC3CCCC3)cc12 [ZAF, zafirlukast, reference compound]	up to 62.6 μg/mL
COc1ccc(Cc2cn(C)c3ccc([N+](=O)[O-])cc23)cc1C(=O)NS(=O)(=O)c1ccccc1F [Compound 21a]	up to 62.6 μg/mL
COc1ccc(Cc2cn(C)c3ccc([N+](=O)[O-])cc23)cc1C(=O)NS(=O)(=O)c1ccccc1Br [Compound 21c]	up to 31.3 μg/mL

----------
# EXPERIMENTAL_PROTOCOL: Cytotoxic effect on oral epithelial cells
# Assay type: cell-based, human
# RUN_CONDITIONS: human, OKF6/hTERT immortalized oral keratinocyte cells
Each item that follows carries a reported viability at 24 h, 100 µM.

COMPOUND	viability at 24 h, 100 µM
COc1ccc(Cc2cn(C)c3ccc([N+](=O)[O-])cc23)cc1C(=O)NS(=O)(=O)c1ccccc1Br [Compound 21c]	5 to 23%
COc1ccc(Cc2cn(C)c3ccc([N+](=O)[O-])cc23)cc1C(=O)NS(=O)(=O)c1ccccc1Cl [Compound 21b]	5 to 23%

Then this compound:
What does the data say about its viability at 24 h, 100 µM? Entry: CCCCn1cc(Cc2ccc(OC)c(C(=O)NS(=O)(=O)c3ccc([N+](=O)[O-])cc3)c2)c2cc([N+](=O)[O-])ccc21 [Compound 24g]
5 to 23%

----------
# System: HEK-293
# EXPERIMENTAL_PROTOCOL: Mammalian cytotoxicity assay
# Type: cell-based, human
# RUN_CONDITIONS: range 0–62.6 μg/mL, 24 h
MEASUREMENT_LABEL: concentration up to which no toxicity was exhibited (HEK-293)

COMPOUND	OBSERVED_VALUE
COc1ccc(Cc2cn(C)c3ccc([N+](=O)[O-])cc23)cc1C(=O)NS(=O)(=O)c1ccccc1F [Compound 21a]	up to 62.6 μg/mL
COc1ccc(Cc2cn(C)c3ccc([N+](=O)[O-])cc23)cc1C(=O)NS(=O)(=O)c1ccccc1Br [Compound 21c]	up to 62.6 μg/mL
COc1ccc(Cc2cn(C)c3ccc([N+](=O)[O-])cc23)cc1C(=O)NS(=O)(=O)c1ccccc1Cl [Compound 21b]	up to 62.6 μg/mL

----------
# EXPERIMENTAL_PROTOCOL: Cytotoxic effect on oral epithelial cells
# Assay type: cell-based, human
# RUN_CONDITIONS: human, OKF6/hTERT immortalized oral keratinocyte cells
MEASUREMENT_LABEL: viability at 24 h, 25 µM (%)
Return type: number; implicit unit %.

What does the data say about its viability at 24 h, 25 µM? Entry: COc1cc(C(=O)NS(=O)(=O)c2ccccc2C)ccc1Cc1cn(C)c2ccc(NC(=O)OC3CCCC3)cc12 [ZAF, zafirlukast, reference compound]
41

----------
Each item that follows carries a reported viability at 24 h, 10 µM.
# EXPERIMENTAL_PROTOCOL: Cytotoxic effect on oral epithelial cells
# Format: cell-based, human
# RUN_CONDITIONS: human, OKF6/hTERT immortalized oral keratinocyte cells

Would you please look over these solved cases?
COMPOUND	MEASUREMENT_LABEL	OBSERVED_VALUE
CCCCn1cc(Cc2ccc(OC)c(C(=O)NS(=O)(=O)c3ccc([N+](=O)[O-])cc3)c2)c2cc([N+](=O)[O-])ccc21 [Compound 24g]	viability at 24 h, 10 µM	9 to 63%
COc1ccc(Cc2cn(C)c3ccc([N+](=O)[O-])cc23)cc1C(=O)NS(=O)(=O)c1ccccc1Cl [Compound 21b]	viability at 24 h, 10 µM	9 to 63%

What does the data say about its viability at 24 h, 10 µM? Entry: COc1ccc(Cc2cn(C)c3ccc([N+](=O)[O-])cc23)cc1C(=O)NS(=O)(=O)c1ccccc1Br [Compound 21c]
9 to 63%
